- methodDescription: qHTS assay for environmental chemicals that activate the Aryl hydrocarbon Receptor (AhR) signaling pathway (AID 651777); note: % of control where 0% means no effect; nearly all actives have a fitted effect of over 15% in size
- measurementParameters: 1A2-DRE human hepatoma cells, luciferase, 24 h; stronger effect = higher value
Inconclusive results are not listed.
readoutName: activation (%)
Output spec: scalar in %, unitless text.

Would you please look over these solved cases?
Note to self: activation recorded for NC(=O)c1ccccc1 was 0.0429

Form field activation, entry CC1=C(/C=C/C(C)=C/C=C/C(C)=C\C(=O)O)C(C)(C)CCC1 : 6.61

Lab note: measured activation of CCCc1c(OCCCOc2ccc(OCC(=O)O)cc2)ccc(C(C)=O)c1O was 0.459

Others:
The reported value for CC(=O)C(C)=O in terms of activation is -0.684

###

- methodDescription: Cytometry Cell-Based qHTS for Inhibitors of the mTORC1 Signaling Pathway in MEF cells (AID 2668);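 note: Tsc2-/- p53-/- mouse embryonic fibroblasts stably re-expressing wild-type Tsc2; percent cells positive for phospho-rpS6 Ser235/236 relative to propidium iodide stain; plate controls were DMSO wells for no effect and 7.5 nM rapamycin control wells for full effect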
- measurementParameters: mTORC1 pathway readout; series mostly up to 38.3 µM
Inconclusive results are not listed. Activity calls are given as the source filed them. The call rests on the fitted dose curve; in most records, active means well fitted inhibition curve with a large enough effect; inconclusive means small, poorly fitted or top-dose-only effect; inactive means flat fitted curve, though single readings scatter.
readoutName: outcome

Reference set, count: 5
Lookup result for COc1cc(C(O)CO)ccc1O (configuration not stated) ; measured outcome: inactive

Sample C[C@@H](NCCc1ccc(O)cc1)[C@@H](O)c1ccc(O)cc1 ; outcome observed: inactive

Looking up CNCCNS(=O)(=O)c1cccc2cnccc12 , I see its outcome listed as inactive

Form: compound = CC[N+](CC)(CC)CC(=O)Nc1c(C)cccc1C ; outcome = inactive

Per the record, CCSC(=N)N has outcome of inactive

Next:
Record N[C@H]1CONC1=O . Reported outcome: inactive

compound Cn1c(=O)[nH]c2ncn(C)c2c1=O , outcome observed: inactive

###

- measurementTarget: Guanine nucleotide-binding protein G(i) subunit alpha-1 (Homo sapiens)
- methodDescription: qHTS Assay for Inhibitors of RGS12 GoLoco Motif Activity (Green Fluorophore) (AID 879);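 note: 0% = labeled peptide with Gαi1 and full inhibition = labeled peptide alone without protein; negative values mean loss of peptide binding seen as reduced polarization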
- measurementParameters: Galphai1/FITC-RGS12 GoLoco peptide, fluorescence polarization; series mostly up to 57.1 µM
Activity calls are given as the source filed them. Calls follow the shape of the dose curve; as a rule, active = well fitted curve in the direction sought with a large enough effect; inconclusive = small, poorly fitted or top-dose-only effect, or another doubt; inactive = no such curve, though single readings can be large or run the other way.
Give one outcome, nothing more. List: true for active, false for inactive

Check the results log: what was the call for C/C(=C\c1ccc(C(=O)O)cc1)c1ccc2c(c1)C(C)(C)CCC2(C)C ? false

Hi team, can someone confirm the assay call for O=c1[nH]ccc2c(O)cccc12 ? false

Others:
Which outcome was assigned to CCCCCCCC/C=C\CCCCCCCC(=O)NCCc1ccc(O)c(O)c1 in this test? false

Returns: the outcome recorded for O=c1onc2cnc3ccccc3n12 in this assay. false

Short answer needed: outcome of this test for COc1cc(N)c(Cl)cc1C(=O)OCCN1CCCCC1 ? false

Tell me the assay call for COc1ccccc1N1CCN(CCCNc2c(C)c(=O)n(C)c(=O)n2C)CC1 please. false

Per the records of this test, what outcome belongs to CCCc1c(OCCCOc2ccc(OCC(=O)O)cc2)ccc(C(C)=O)c1O ? false

Which outcome was assigned to N[C@@H](Cc1ccc(O)c(I)c1)C(=O)O in this test? false

Dear all, I need the recorded test outcome for NC1(C(=O)O)CCCCC1 , thank you. false

Fill in: this test's call for COC(=O)[C@H](NC(=O)c1cc(-c2ccccc2)nc2ccccc12)c1ccccc1 is ___ false

# lookup: test call for Cc1nc(N=Nc2ccc(S(=O)(=O)O)cc2S(=O)(=O)O)c(COP(=O)(O)O)c(C=O)c1O false

Hey, what did the test say about Cn1c(=O)c2[nH]c(C3CCCC3)nc2n(C)c1=O ? false

So what was the verdict on N[C@H](C(=O)O)c1cc(O)cc(O)c1 in this test? false

How did this test come out for Cn1cc(C(=O)OCC2CCN(CCNS(C)(=O)=O)CC2)c2ccccc21 ? false

Please state the recorded outcome for this compound: O=C(O)/C=C/c1ccc(O)c(O)c1 false

What call does the record list for NCCCCN ? false

Name the outcome recorded for N[C@@H](Cc1c[nH]c2ccccc12)C(=O)O in the assay. false

Which outcome did this test record for the compound COc1cc(CC(=O)O)ccc1O ? false

###

- measurementTarget: Voltage-gated inwardly rectifying potassium channel KCNH2 (Homo sapiens) (UniProt Q12809)
- Sequence (Q12809 whole entry, looked up): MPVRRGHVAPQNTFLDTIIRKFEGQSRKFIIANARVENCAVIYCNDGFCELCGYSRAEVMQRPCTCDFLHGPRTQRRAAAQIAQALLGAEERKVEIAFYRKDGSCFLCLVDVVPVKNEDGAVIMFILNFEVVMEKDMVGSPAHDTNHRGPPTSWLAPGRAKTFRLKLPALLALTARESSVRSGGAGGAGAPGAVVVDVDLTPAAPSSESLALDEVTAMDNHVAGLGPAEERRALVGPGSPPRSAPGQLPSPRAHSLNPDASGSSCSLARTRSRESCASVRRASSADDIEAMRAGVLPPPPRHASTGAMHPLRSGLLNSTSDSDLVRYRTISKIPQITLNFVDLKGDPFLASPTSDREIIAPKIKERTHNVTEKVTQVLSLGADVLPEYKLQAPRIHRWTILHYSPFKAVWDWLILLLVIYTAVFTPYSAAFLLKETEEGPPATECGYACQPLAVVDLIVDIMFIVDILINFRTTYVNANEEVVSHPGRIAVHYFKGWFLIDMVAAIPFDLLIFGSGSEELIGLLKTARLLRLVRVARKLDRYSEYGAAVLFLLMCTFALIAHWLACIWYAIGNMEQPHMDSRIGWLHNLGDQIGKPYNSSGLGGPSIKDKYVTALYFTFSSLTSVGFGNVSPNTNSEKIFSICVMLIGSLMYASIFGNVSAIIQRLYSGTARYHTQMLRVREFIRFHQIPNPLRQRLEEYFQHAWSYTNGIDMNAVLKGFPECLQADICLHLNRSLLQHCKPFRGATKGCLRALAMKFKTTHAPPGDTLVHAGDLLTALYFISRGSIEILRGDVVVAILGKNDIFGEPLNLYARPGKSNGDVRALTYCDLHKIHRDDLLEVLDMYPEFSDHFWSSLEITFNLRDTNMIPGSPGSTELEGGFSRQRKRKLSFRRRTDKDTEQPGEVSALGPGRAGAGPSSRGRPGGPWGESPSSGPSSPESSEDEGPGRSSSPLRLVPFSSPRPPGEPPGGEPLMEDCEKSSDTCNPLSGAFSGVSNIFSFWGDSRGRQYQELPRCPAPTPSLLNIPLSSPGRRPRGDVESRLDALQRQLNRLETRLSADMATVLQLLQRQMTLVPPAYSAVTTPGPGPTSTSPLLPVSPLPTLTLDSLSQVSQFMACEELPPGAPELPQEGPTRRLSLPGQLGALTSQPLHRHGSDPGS
- methodDescription: qHTS Assay for Small Molecule Inhibitors of the Human hERG Channel Activity (AID 588834);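 note: U2OS cells transduced with hERG by BacMam; top concentration of the series differs between compounds; % is set by controls: 0 for no effect and ±100 for the full control effect; lower thallium flux fluorescence means stronger hERG block; nearly all actives have a fitted effect of over 50% in size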
- measurementParameters: U2OS BacMam hERG, FluxOR thallium flux fluorescence; series mostly up to 46.1 µM
Records with an inconclusive call do not appear. Active and inactive are the calls of the source. Calls follow the shape of the dose curve; as a rule, active = well fitted inhibition curve with a large enough effect; inconclusive = small, poorly fitted or top-dose-only effect; inactive = flat fitted curve, though single readings scatter.
Write down the outcome that applies. Available outcomes: yes (active), no (inactive)

Observe how each entry below is paired with its result.
In this assay, the call recorded for O=C(OCCN1CCOCC1)C1(c2ccccc2)CCCCC1 was what? no

Assay result, entry O=c1[nH]ccc2c(O)cccc12 — outcome? no

Test call, this compound: Nc1nc2ccc(Cl)cc2c2nc(-c3ccco3)nn12 no

***
What call does the record list for CC(N)=NCCCC[C@@H](N)C(=O)O ? no

How did this test come out for CCCCS(=N)(=O)CC[C@H](N)C(=O)O (stereo partly specified) ? no

###

- methodDescription: qHTS to identify inhibitors of the type 1 interferon - major histocompatibility complex class I in skeletal muscle: primary screen against the NCATS LOPAC collection (AID 1347405);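 note: human myoblasts with HiBiT tag on endogenous HLA-B stimulated by IFN-beta; lytic HiBiT luminescence reporting HLA-B protein level; % is set by controls: 0 for no effect and ±100 for the full control effect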
- measurementParameters: iHSKM muscle cells, IFN-b-induced MHC-I HiBiT luminescence, 24 h; series mostly up to 45.9 µM
Records with an inconclusive call do not appear. Active and inactive are the calls of the source. The call rests on the fitted dose curve; in most records, active means well fitted inhibition curve with a large enough effect; inconclusive means small, poorly fitted or top-dose-only effect; inactive means flat fitted curve, though single readings scatter.
readoutName: outcome

The following compounds have reported results that may help.
# outcome of CC(N)(Cc1ccc(O)c(O)c1)C(=O)O (configuration not stated) = inactive

For this compound ( Nc1nc2c(cnn2CCc2ccccc2)c2nc(-c3ccco3)nn12 ), measured outcome is inactive

compound CN(C)C(=O)/N=N/C(=O)N(C)C , outcome observed: inactive

Value of measured outcome for the entry NC(C(=O)N[C@@H]1C(=O)N2C(C(=O)O)=C(Cl)CS[C@H]12)c1ccccc1 (some centres not stated) : inactive

Briefly, outcome measured for CC(O)C(O)[C@H]1CNc2nc(N)[nH]c(=O)c2N1 (some centres not stated) : inactive

Continuing:
NCC(O)(CS(=O)(=O)O)c1ccc(Cl)cc1 (configuration not stated) yielded outcome of inactive

Record summary for CSc1nc(N)c2ncn([C@@H]3O[C@H](COP(=O)(O)OP(=O)(O)O)C(O)[C@H]3O)c2n1 (some centres not stated) : reported outcome = inactive

Notebook: NC(N)=NC(N)=Nc1ccccc1 , outcome read as inactive

Reported outcome for NC(N)=NC(N)=Nc1cccc(Cl)c1 was inactive

Kindly note the recorded outcome for C=CCn1c(=O)c2c(nc(-c3ccc(S(=O)(=O)O)cc3)n2C)n(C)c1=O , which is inactive

Documented outcome of O=C(c1ccc2c(c1)OCCO2)N1CCCCC1 : inactive

C=C(C)C1CC=C(C(=O)O)CC1 (configuration not stated) yielded outcome of inactive

###

- methodDescription: Nrf2 qHTS screen for inhibitors: Validation (AID 493153)
- measurementParameters: A549 ARE-Fluc reporter, 18-24 h; measured here: cytotoxicity max response
- Method: NIH Molecular Libraries Probe Production Network [MLPCN] NIH Chemical Genomics Center [NCGC] […] Assay Protocol Summary: A concentration-response assay was performed with A549 ARE_Fluc cells which are suspended in 5% FBS OPTI-MEM. […] The plate is then incubated at 37deg C at 5% CO2 for 30 minutes before they are read on the ViewLux (Perkin Elmer) for a fluorescent read Ex=405(10)/Em=525(10) for a 3 second exposure, 2x binning, and high gain. […]
Inconclusive results are not listed.
readoutName: viability change (%)
Answer format: numeric, % implied, no suffix.

The compound identified as CC(N)(C(=O)O)c1ccc(C(=O)O)cc1 (configuration not stated) registered its viability change at 1.94

GET /value?item= CC[N+](CC)(CC)CC(=O)Nc1c(C)cccc1C &field=viability change returns -3.66

Record COc1cc(CC(=O)O)ccc1O , field viability change: 3.47

Lookup result for CNc1cc(NS(=O)(=O)c2ccc(N)cc2)nc(NC)n1 ; measured viability change: 6.74

GET /value?item= Cn1c(=O)c2c(nc(/C=C/c3cccc(Cl)c3)n2C)n(C)c1=O &field=viability change returns 3.93

More entries:
GET /value?item= Nc1ncnc2c1nc(Br)n2C1OC2COP(=O)(O)O[C@@H]2C1O (some centres not stated) &field=viability change returns 1.09

response.value for Cn1c(=O)[nH]c2ncn(C)c2c1=O (field: viability change) = 1.53

Just so you know, measured viability change for NC(Cc1cccc(-c2ccccc2CP(=O)(O)O)c1)C(=O)O (configuration not stated) came out at 0.913

Sample Nc1ncnc2c1ncn2C1CCCO1 (configuration not stated) ; viability change observed: 12.1

Sample COc1cccc(OC)c1OCCNCC1CSc2ccccc2O1 (configuration not stated) ; viability change observed: -8.63

Consider C=CCN1CCc2cc(O)c(O)cc2C(c2ccccc2)C1 (configuration not stated) . Its measured viability change is -2.64

// Oc1ccc(/C=C/c2ccc(/C=C/c3ccc(O)cc3)c(Br)c2)cc1 : viability change value = 2.12
